Documented koff across a set of binders
Target: recombinant human ICAM1 (human, UniProt P05362 28-480, limits assumed)
Sequence (P05362 28-480 limits assumed): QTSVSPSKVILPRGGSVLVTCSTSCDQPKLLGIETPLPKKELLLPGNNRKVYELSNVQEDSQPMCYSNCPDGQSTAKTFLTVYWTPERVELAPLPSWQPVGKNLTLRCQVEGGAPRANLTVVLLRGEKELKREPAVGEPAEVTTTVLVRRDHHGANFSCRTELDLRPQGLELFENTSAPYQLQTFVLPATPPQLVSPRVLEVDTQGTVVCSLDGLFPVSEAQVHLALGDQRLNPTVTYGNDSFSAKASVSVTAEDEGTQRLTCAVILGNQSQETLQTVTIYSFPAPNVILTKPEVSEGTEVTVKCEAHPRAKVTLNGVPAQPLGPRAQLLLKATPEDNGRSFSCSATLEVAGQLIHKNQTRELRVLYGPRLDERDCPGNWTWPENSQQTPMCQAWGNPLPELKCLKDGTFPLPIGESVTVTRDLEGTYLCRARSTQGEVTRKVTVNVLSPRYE
Test: SPR (Biacore 8K), antibody captured, antigen injected
I only need the number, in s⁻¹, no unit after it.

{"binder": "Anti-ICAM1 G12 (antibody, human IgG1, lambda, V domains shown, Human IgG1 with a lambda light chain; also called anti-ICAM1 clone G12) VH: QVQLQESGGGLVQPGGSLRLSCAASGFTFSSYAMSWVRQAPGKGLEWVSAISGSGGSTYYADSVKGRFTISRDNSKNTLYLQMSSLRAEDTAFYYCANSAYTGGWYDYWGHGTLVTVSS VL: ASELTQDPAVSVALGQTVKITCQGDSLRTYYASWYQQRPGQAPVLVIYGENSRPSGIPDRFSGSSSGNTASLTITGAQAEDEADYYCNSRDSSGNHLRVFGGGTKLTVLG", "result-unit": "s⁻¹", "koff": 0.00331}

Prompt: Please report the recorded koff for 8B12 (antibody, human IgG1, kappa, V domains shown, Rabbit-human chimeric anti-ICAM1: rabbit VH and VL on human IgG1 and kappa constant regions) VH: QSVEESGGGLVKPGGTLTLTCTVSGFSLSTHAMGWVRQAPGKGLEYIGIIGSSDRTYYASWAKGRFTISKTSTTVDLKITSPTTEDTATYFCVRDPYDSFDDGYRLWGPGTLVTVSS VL: AYDMTQTPASVEVAVGGTVTIKCQASQSIYSYLSWYQQKPGQRPKFLIYDASKVASGVPSRFKGSGSGTEFTLTISAVQSDDAATYYCQQAYSSSNVDNAFGGGTEVMVKR .
Response: 0.000115

Prompt: Please report the recorded koff for 11F2 (antibody, human IgG1, kappa, V domains shown, Rabbit-human chimeric anti-ICAM1: rabbit VH and VL on human IgG1 and kappa constant regions) VH: QSVEESGGGLVKPGGTLTLTCTVSGFSLSSHAMGWVRQAPGKGLEYIGIIGSSDRTYYASWAKGRFTISKTSTTVDLKITSPTTEDTATYFCVRDPYDSYDDGYRLWGPGTLVTVSS VL: AYDMTQTPASVEVAVGGTVTIKCQASQSIYRYLSWYQKKPGQRPKFLIYDASKLASGVPSRFEGSGSGTEFTLTISGAQSDDAATYYCQQAYSSGSIDNAFGGGTEVVVKR .
Response: 0.000131

Prompt: Please report the recorded koff for 11G7 (antibody, human IgG1, kappa, V domains shown, Rabbit-human chimeric anti-ICAM1: rabbit VH and VL on human IgG1 and kappa constant regions) VH: QSVEESGGRLVTPGTPLTLTCTVSGFSLSDYYMSWVRQAPGKGLEWIGIISDSGSTYYASWAKGRFTISKTSSTTVDLKITSPTTEDTATYFCARDWSYDSSSGYYYYDMDLWGPGTLVTVSA VL: AYDMTQTPASVEVAVGGTVTIKCQASQSINSWLSWFHQKPGQPPKRLIYKASTLASGVSSRFKGSGSGTQFTLTISGVESADAATYYCQQGYSRSDGEHVFGGGTEVVVKR .
Response: 0.000271

Prompt: Please report the recorded koff for 4H5 (antibody, human IgG1, kappa, V domains shown, Rabbit-human chimeric anti-ICAM1: rabbit VH and VL on human IgG1 and kappa constant regions) VH: QSVEESGGRLVTPGTPLTLTCTASGFSLSNYYMSWVRQAPGKGLEWIGIISDSGTTYYASWAKGRFTISKTSTTVDLKITSPTTEDTATYFCARDWSYDSSSGYYYYDMDLWGPGTLVTVSA VL: GYDMTQTPASVEVAVGGTVTIKCQASQSINSWLVWFQHKPGQPPKRLIYKASTLASGVSSRFKGSGSGTHFTLTISGVESADAATYYCQQGYSRSDGEHVFGGGTEVVVKR .
Response: 0.000256
